- Protocol text: Pharmacokinetic study in rat (iv or oral gavage)
- Format: in vivo, SD rats
- Details: in vivo; SD rat, iv 5 mg/kg, parent compound (Example 5) measured

# Compound, Cmax (ng/mL)
rows = [
    ("Cl.NC[C@H]1OB2O[C@H](CO)COC3C=CC=C1C23 (stereo partly shown) [Example 5, reference compound]", 6780),
]

----------
- Protocol text: Lung vs. plasma distribution study in mice
- Format: in vivo
- Details: plasma; Balb/C mouse, Example 5 10 mg/kg iv, levels for Example 5; read-out: t1/2, plasma (converted)
Metric: half-life (h)

# Compound, Metric, Measured number
measured = [
    ("Cl.NC[C@H]1OB2O[C@H](CO)COC3C=CC=C1C23 (stereo partly shown) [Example 5, reference compound]", "half-life", 1.87),
]
